Reported TGI by item:
Tested on: SN12C renal
Assay: NCI tumour cell line growth inhibition, 48 h

// known answers, use as guide
Q: What is its TGI for SN12C renal? Entry: C=C1C(=O)O[C@@]23C1CC[C@@H](C)C2CC[C@@]1(C)OC31 (stereo partly drawn)
Result: 21.5 µM

Q: What is its TGI for SN12C renal? Entry: CC(C)(CC(=O)Nc1ccccc1)C(=O)O
Result: > 100 µM

Q: What is its TGI for SN12C renal? Entry: O=C(O)C(CS)N=c1c2ccccc2n(O)c2ccccc12 (stereo not drawn)
Result: > 100 µM

Q: What is its TGI for SN12C renal? Entry: Oc1c(CN2CCC(N3CCCCC3)CC2)cc(Cc2cc(CN3CCC(N4CCCCC4)CC3)c(O)c3ncccc23)c2cccnc12
Result: 16 µM

Q: What is its TGI for SN12C renal? Entry: NC(=O)c1cc2ccccc2o/c1=N/O
Result: > 100 µM

---
Q: What is its TGI for SN12C renal? Entry: FC(F)(F)c1ccc2nc3n(c2c1)C(c1c(Cl)cccc1Cl)SC3 (stereo not drawn)
Result: 32.7 µM

Q: What is its TGI for SN12C renal? Entry: OC1(c2ccc(Cl)cc2)c2ccc3ccccc3c2C2=N[C@H]3CCCC[C@@H]3N21 (stereo partly drawn)
Result: > 100 µM

Q: What is its TGI for SN12C renal? Entry: O=c1[nH]ncc(Br)c1Br
Result: 6.13 µM

Q: What is its TGI for SN12C renal? Entry: O=c1/c(=C/c2ccco2)sc2nc3ccccc3n12
Result: > 10 µM

Q: What is its TGI for SN12C renal? Entry: CCOC(=O)C(NC(=O)CC(C)C)(N1CCN(c2cc3c(cc2F)c(=O)c(C(=O)O)cn3C2CC2)CC1)C(F)(F)F (stereo not drawn)
Result: > 100 µM

Q: What is its TGI for SN12C renal? Entry: COc1cc(C2NC(=O)c3ccccc3N2)ccc1OCCCCCOc1c(OC)cc(C2=NOC(c3cc(OC)c(OC)c(OC)c3)C2)cc1OC (stereo not drawn)
Result: > 100 µM

Q: What is its TGI for SN12C renal? Entry: CC(=O)OCC(OC(C)=O)C1C[C@H]2O[C@@H]3[C@H](C[C@H]2O1)O[C@@]1(C[C@@H]3C)C[C@H](C)[C@@H]2O[C@]3(C[C@@H]2O1)C[C@H]1O[C@H]2[C@H](C)[C@H]4OC(=O)CC5CC[C@H]6OC7[C@H]8O[C@]9(CC[C@H]%10CC(O)(CO)[C@H](CC[C@H]%11C[C@@H](C)C(O)(CO)C(C[C@@H]4O[C@H]2C[C@H]1O3)O%11)O%10)CC8O[C@@H]7[C@@H](O9)[C@H]6O5 (stereo partly drawn)
Result: > 1 µM

====

System: HCT-116 colon
Test: NCI tumour cell line growth inhibition, 48 h
Reported TGI by item:

// known answers, use as guide
Q: Quick check: TGI of C/C(CC(=O)Nc1ccc(C)cc1C)=N/N=C(N)N ?
Result: > 100 µM

Q: Quick check: TGI of COc1cc(C2=C(c3ccccc3)COC2=O)cc(OC)c1OC ?
Result: > 38.1 µM

Q: Quick check: TGI of O=C(/C=C/c1c(O)ccc2ccccc12)c1cccc(O)c1 ?
Result: > 100 µM

Okay, now this compound:
Q: Quick check: TGI of CC(=S)N=Cc1c(O)cc(C)oc1=O ?
Result: > 100 µM
